Origin of the recorded values: patent US5545656A

# System: production of PGD2 (cyclooxygenase pathway) by RBL-1 cells
# method.description: Inhibition of the cyclooxygenase pathway (PGD2 formation) in RBL-1 cells
# Format: cell-based
# test.conditions: Rattus norvegicus, 5 min, [14C]-arachidonic acid plus calcium ionophore, N in brackets, read-out: RBL-cells PGD2 formation IC50 ± SD (N)
A collection of compounds and their measured log10 IC50
Remember, log10 of IC50, in µM.

{"columns": ["compound", "assay.target", "value.reported"],
 "data": [
  ["Cc1ccc2c(c1)C(C(=O)c1cccs1)C(=O)N2C(N)=O (centres unmarked) [CH3 H 2'-thienyl]", "production of PGD2 (cyclooxygenase pathway) by RBL-1 cells", 2.00]
]}

For NC(=O)N1C(=O)C(C(=O)c2ccsc2)c2cc(Cl)ccc21 (centres unmarked) [Cl H 3'-thienyl] , what is its reported log10 IC50?
-0.15

For NC(=O)N1C(=O)C(C(=O)c2ccoc2)c2cc(Cl)ccc21 (centres unmarked) [Cl H 3'-furyl] , what is its reported log10 IC50?
0.51

For NC(=O)N1C(=O)C(C(=O)C(F)(F)F)c2cc(Cl)ccc21 (centres unmarked) [Cl H Trifluoromethyl] , what is its reported log10 IC50?
1.57

For NC(=O)N1C(=O)C(C(=O)c2cccs2)c2cc(Cl)ccc21 (centres unmarked) [tenidap] , what is its reported log10 IC50?
-1.70
